biological target: ZFP SBS#1230 (synthetic); test: EMSA; conditions: tags: MBP fusion
Sequence (chain, as listed by the source): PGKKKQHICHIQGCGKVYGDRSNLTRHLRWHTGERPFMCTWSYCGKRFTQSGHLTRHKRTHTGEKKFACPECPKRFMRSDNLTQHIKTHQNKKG
attribute_measured: pKd
Units for pKd: none; it is -log10 of a concentration expressed in mol/L.

Ask: Data request, read-out pKd, for AAGGGAGAC (dsDNA) DNA 1: AAGGGAGAC DNA 2: GTCTCCCTT
Reply: 9.42
